Biological target: Human SGLT2 (hSGLT2) (Homo sapiens, UniProt P31639)
Sequence (P31639 whole entry): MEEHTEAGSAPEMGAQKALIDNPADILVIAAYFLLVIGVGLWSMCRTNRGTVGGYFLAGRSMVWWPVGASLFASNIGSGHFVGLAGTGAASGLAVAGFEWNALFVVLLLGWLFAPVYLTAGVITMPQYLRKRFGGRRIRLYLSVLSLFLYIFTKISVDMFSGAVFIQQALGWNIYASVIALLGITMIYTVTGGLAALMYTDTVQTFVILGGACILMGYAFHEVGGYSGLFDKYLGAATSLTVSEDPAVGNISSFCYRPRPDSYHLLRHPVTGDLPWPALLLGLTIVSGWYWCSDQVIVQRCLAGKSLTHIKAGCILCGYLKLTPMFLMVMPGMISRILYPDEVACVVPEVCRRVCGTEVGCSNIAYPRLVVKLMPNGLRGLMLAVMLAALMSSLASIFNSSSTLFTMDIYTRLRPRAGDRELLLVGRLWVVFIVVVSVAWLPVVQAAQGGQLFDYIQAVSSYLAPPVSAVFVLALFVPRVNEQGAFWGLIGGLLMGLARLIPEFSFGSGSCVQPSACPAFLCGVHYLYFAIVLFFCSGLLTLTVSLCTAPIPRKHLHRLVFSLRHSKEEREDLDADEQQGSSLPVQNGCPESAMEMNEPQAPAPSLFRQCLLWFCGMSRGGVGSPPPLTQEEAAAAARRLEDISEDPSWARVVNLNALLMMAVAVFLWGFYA
Experiment: Sodium-dependent glucose transport (14C-AMG uptake) assay in CHO cells stably expressing hSGLT2
Details: CHO cells expressing hSGLT2, 14C-AMG uptake, 37° C. for 2 h; single determinations; read-out: hSGLT2 Inhibitory Activity IC50
Text: Cloning and Cell Line Construction for Human SGLT2 Human SGLT2 (hSGLT2) gene was amplified by PCR from cDNA-Human Adult Normal Tissue Kidney (Invitrogen). The hSGLT2 sequence was cloned into pcDNA3.1(+) for mammalian expression and were stably transfected into chinese hamster ovary (CHO) cells. SGLT2-expressing clones were selected based on resistance to G418 antibiotic (Geneticin) and activity in the ^14C-α-methyl-D-glucopyranoside (^14C-AMG) uptake assay. […]
This section presents compounds with their documented pIC50 values.
Note on units: pIC50 is unitless, being -log10 of a concentration expressed in mol/L.

# compound, pIC50
data = [
    ("OC[C@H]1O[C@@H](c2ccc(Cl)c(C3(c4ncc(-c5ccoc5)s4)CC3)c2)[C@H](O)[C@@H](O)[C@@H]1O", 6.96),
    ("CCCc1cnc(Cc2cc([C@@H]3O[C@H](CO)C(O)[C@H](O)[C@H]3O)c3ccccc3c2OC)s1 (stereo in doubt)", 7.72),
    ("OC[C@H]1O[C@@H](c2ccc(Cl)c(Cc3ncc(-c4ccccn4)s3)c2)[C@H](O)[C@@H](O)[C@@H]1O", 8.16),
]

Record OC[C@H]1O[C@@H](n2cc(Cc3ncc(-c4cccs4)s3)c3ccccc32)[C@H](O)[C@@H](O)[C@@H]1O , field pIC50: 7.86

Record OC[C@H]1O[C@@H](c2ccc(Cl)c(Cc3ncc(-c4nccs4)s3)c2)[C@H](O)[C@@H](O)[C@@H]1O , field pIC50: 8.13

Record C[C@H]1O[C@@H](c2ccc(Cl)c(Cc3ncc(-c4ccco4)s3)c2)[C@H](O)[C@@H](O)[C@@H]1O , field pIC50: 8.15

Record CCc1cnc(Cc2cc([C@@H]3O[C@H](CO)[C@@H](O)[C@H](O)[C@H]3O)cc3ccccc23)s1 , field pIC50: 6.61

Record CCOC(=O)c1cnc(Cc2cc([C@@H]3O[C@H](CO)[C@@H](O)[C@H](O)[C@H]3O)ccc2Cl)s1 , field pIC50: 7.30

Record OC[C@H]1O[C@@H](c2ccc(Cl)c(Cc3cnc(-c4cocn4)s3)c2)[C@H](O)[C@@H](O)[C@@H]1O , field pIC50: 7.34

Record CCCCCCc1cnc(Cc2cc([C@@H]3O[C@H](CO)[C@@H](O)[C@H](O)[C@H]3O)c(Cl)cc2Cl)s1 , field pIC50: 7.41
